# maps each entry to its melting point

Field: example entries. Status: answers known.
>>> value_observed("CCOCCOc1cccc2oc(-c3cccs3)cc(=O)c12")
"111 to 113 °C"
>>> value_observed("[N-]=[N+]=C1C(=O)Nc2cccc(Cl)c21")
"214 to 215 °C"
>>> value_observed("O=C(O)C(CC1CCCC1)c1cccc([N+](=O)[O-])c1 (configuration not stated)")
"95 to 99 °C"
>>> value_observed("Cc1c2n(c3ccccc13)C(=O)C(Cc1cncn1C)CC2 (configuration not stated)")
"117 to 118 °C"
>>> value_observed("COc1ccc2c(c1)C(=O)c1c-2c(Nc2ccc(C(C)=O)cc2)nc2ccccc12")
"251 to 252 °C"

// melting point lookup, key: CCOC(=O)c1csnc1-c1ccc(OC)c(OC)c1 74 to 75.5 °C

Now consider COc1cc(C(=O)NC=NC(=O)ON(c2ccc(C)c(NC(=O)c3ccc(OCc4ccccc4)cc3)c2)C(C)(C)C)cc(OC)c1OC . 94 °C

---

# maps each entry to its melting point

>>> value_observed("Cc1ccc(C)n1C1=CC2=C(CC1)CCc1[nH]c(=O)c(=O)n(O)c12")
"> 250 °C"
>>> value_observed("CC(=O)N1CCC(c2nn(-c3ccc(F)cc3)c3ccccc23)CC1")
"99 to 101 °C"
>>> value_observed("COc1ccc(-c2nc(C(N)=O)cn2-c2ccc(OC)cc2)cc1")
"167 to 169 °C"
>>> value_observed("Fc1ccc2cc(C3CCNCC3)sc2c1")
"115 to 120 °C"
>>> value_observed("CCOc1ccc2c(c1)n(C1CCCCC1)c(=O)n2S(=O)(=O)c1ccc(NC(=O)Oc2ccccc2)cc1OC")
"197 °C"

Shifting focus to the compound that follows.
// melting point lookup, key: NCc1ccc(N2CCN(c3ccncc3)CC2)cc1 168 to 170 °C

---

recorded.endpoint: melting point

Field: example entries. Status: answers known.
>>> value_observed("CC(C)(C)c1cccc(C[C@@H]2N[C@@H](c3ccccc3)[C@@H](c3ccccc3)OC2=O)c1")
"136 to 137 °C"
>>> value_observed("CC(C)(C)c1cc(Cn2c(=O)n(Cc3cc(C(C)(C)C)c(O)c(C(C)(C)C)c3)c(=O)n(Cc3cc(C(C)(C)C)c(O)c(C(C)(C)C)c3)c2=O)cc(C(C)(C)C)c1O")
"218 to 219 °C"
>>> value_observed("CCOc1c(NC(C)(C)C)c(=O)c1=O")
"80 to 82 °C"

// melting point lookup, key: CCCNC(=O)CCn1ccc(=O)c(O)c1 113 to 114 °C

Now consider CN1CN(C(=O)c2c(F)cccc2F)C(=O)N(c2ccc(S(=O)C(F)F)cc2F)C1 (stereo not given) . 50 to 55 °C

---

# maps each entry to its melting point

Field: example entries. Status: answers known.
>>> value_observed("C#Cc1ccc2c(c1)C(c1ccccc1F)=NC(C)c1c(C(=O)OCC)ncn1-2 (stereo not drawn)")
"212 to 214 °C"
>>> value_observed("O=[N+]([O-])c1ccc(OCC(O)CCCl)cc1 (stereo not drawn)")
"60 to 63 °C"

// melting point lookup, key: CCn1ncc2c1ncc1c(SC)nc3ncnn3c12 198 to 200 °C

---

recorded.endpoint: melting point

>>> value_observed("CN(C)C1CCc2[nH]c3c(C#N)cccc3c2C1 (stereo not given)")
"177 to 179 °C"

// melting point lookup, key: CC(=O)Oc1cnc2c(OC(C)=O)cccc2c1 101 to 102 °C

Now consider Clc1cc2c(nn1)CCCCC2 . 74 to 75 °C

Now consider COc1ccc(CNc2cc3c(Nc4ccc(Br)c(Br)c4)ncnc3cn2)cc1 . 166 to 169 °C

Now consider Cc1ccc(O)c(C(=O)C2CC2)c1 . 66 to 68 °C
